# method description: Induction of anti-CD3/CD28 antibodies-stimulated human T cell activation at 0.3 uM assessed fold increase in CD25 expression measured by ELISA assay
# Type: functional, T cell line
property label: fold change (FC)
One number for each entry.

compound | property label | number
Cc1cc(C(=O)Nc2cccc([C@H](C)Cc3nncs3)c2)nc(C2CC2)n1 | fold change (FC) | 1.01
Cc1cc(C(=O)Nc2cccc(C3(Cc4nncn4C)COC3)c2)n2ncc(C)c2n1 | fold change (FC) | 1.01
C[C@H](CC1=NN=CC1C(F)(F)F)c1cccc(N2Cc3c(cc(C(=O)N4CC[C@H](O)C4)cc3C(F)(F)F)C2=O)c1 (stereo partly specified) | fold change (FC) | 1.01
CO[C@@H]1CCN(Cc2cc3c(c(C(F)(F)F)c2)CN(c2cccc(C4(Cc5nncn5C)COC4)c2)C3=O)C[C@@H]1F (relative stereo) | fold change (FC) | 1.31
Cn1cnnc1CC1(c2cccc(N3Cc4c(cc(C(N5CCCC5)C(F)(F)F)cc4C(F)(F)F)C3=O)c2)COC1 (stereo unspecified) | fold change (FC) | 1.01

Could I get fold change (FC) for every one of these entries?
1. Cn1cnnc1[C@@H](F)C1(c2cccc(N3Cc4c(cc(CN5CCC6(CC6)C5)cc4C(F)(F)F)C3=O)c2)COC1
2. Cn1cnnc1[C@@H]1C[C@@H]1c1cccc(N2Cc3c(ccnc3C(F)(F)F)C2=O)c1
3. Cn1cnnc1CC1(c2cccc(N3Cc4c(cc(C5=CN6CCC5CC6)cc4C(F)(F)F)C3=O)c2)COC1
4. CC(c1cc2c(c(C(F)(F)F)c1)CN(c1cccc([C@H]3C[C@H]3c3nncn3C)c1)C2=O)N1CC[C@H](F)C1 (stereo partly specified)

Result:
[1.01, 1.01, 1.01, 1.31]

Q: Data request, read-out fold change (FC), for Cn1cnnc1CC1(c2cccc(N3Cc4c(cc(CN5CCOCC5)cc4C(F)(F)F)C3=O)c2)COC1
Result: 1.31

----------
# method description: Induction of anti-CD3/CD28 antibodies-stimulated human T cell activation at 0.3 uM assessed fold increase in IL-2 secretion measured by ELISA assay
# Format: functional, T cell line
property label: fold change (FC)
One number for each entry.

# count of solved cases: 4
compound | fold change (FC)
Cc1cc(C(=O)Nc2cccc([C@H](C)Cc3nncn3C)c2)nc2ccnn12 | 1.01
CC1C(C(F)(F)F)CCN1Cc1cc2c(c(C(F)(F)F)c1)CN(c1cccc(C3(Cc4nncn4C)COC3)c1)C2=O (stereo not drawn) | 5
Cc1cc(C(=O)Nc2cccc([C@H](C)Sc3nncn3C)c2)nc2ccccc12 | 1.01
Cn1cnnc1CC1(c2cccc(N3Cc4c(ccc(F)c4C4CC4)C3=O)c2)COC1 | 1.01

Let's switch to this compound now.
Q: Data request, read-out fold change (FC), for Cn1cnnc1CC1(c2cccc(N3Cc4c(cc(CN5Cc6ccccc6C5)cc4C(F)(F)F)C3=O)c2)COC1
Result: 5

----------
# method description: Induction of anti-CD3 antibodies-stimulated human T cell activation at 10 uM assessed fold increase in TNF-alpha secretion measured by ELISA assay; further: reference of the scale not given here
# Format: functional, T cell line

chemical string | fold change (FC)
C[C@H](Cc1nncn1C)c1cccc(N2Cc3c(cccc3C(F)(F)F)C2=O)c1.Cl | <=1.5
C[C@H](Cc1nncn1C)c1cccc(N2Cc3c(cc(CN4CC(O)C4)cc3C(F)(F)F)C2=O)c1 | <=1.5
Cc1cc2c(c(C3CC3)n1)CN(c1cccc([C@H](C)Cc3nncn3C)c1)C2=O | <=1.5

----------
# method description: Induction of activation of human CD56+ CD3- NK cells co-cultured with human K562 cells in 1:1 ratio and assessed as increase in TNF-alpha secretion at 10 uM measured by ELISA assay
# Assay type: functional, Natural killer cell

chemical string | fold change (FC)
Cn1cnnc1C(F)(F)[C@](C)(F)c1cccc(N2Cc3c(cc(CN4CC[C@@H](C#N)C4)cc3C(F)(F)F)C2=O)c1 | >=5
C[C@H](c1cc2c(c(C(F)(F)F)c1)CN(c1cccc(C3(Cc4nncn4C)COC3)c1)C2=O)N1CC[C@H](F)C1 | >=5
C[C@@H](Sc1nncn1C)c1cccc(NC(=O)c2ccc3ccccc3n2)c1 | <=1

----------
# method description: Induction of activation of human CD56+ CD3- NK cells co-cultured with human K562 cells in 1:1 ratio and assessed as increase in IFN-gamma secretion at 2.5 uM measured by ELISA assay
# Format: functional, Natural killer cell
property label: fold change (FC)

chemical string | result
COC1CN(Cc2cc3c(c(C(F)(F)F)c2)CN(c2cccc([C@@](C)(F)C(F)(F)c4nncn4C)c2)C3=O)C1 | >=5
C[C@H](Cc1nncn1C)c1ccnc(NC(=O)c2cccc(C(F)(F)F)n2)c1 | <=1
C[C@H](Cc1nncn1C)c1cccc(NC(=O)c2cc3cc(N4CCNCC4)ccc3cn2)c1.Cl | <=1
Cn1cnnc1CC1(c2cccc(N3Cc4c(cc(CN5CCC6(CC6)C5)cc4C(F)(F)F)C3=O)c2)COC1 | >=5

Let's switch to this compound now.
Q: Data request, read-out fold change (FC), for C[C@H](Sc1nncn1C)c1cccc(NC(=O)c2cc(C(=O)N3CC[C@H](O)C3)ccn2)c1
Result: <=1

----------
# method description: Induction of anti-CD3 antibodies-stimulated human T cell activation at 8 uM assessed fold increase in CD25 expression measured by ELISA assay; further: reference of the scale not given here
# Assay type: functional, T cell line
property label: fold change (FC)
Give bare numbers.

# count of solved cases: 3
chemical string | fold change (FC)
Cc1cc(C(=O)Nc2cc([C@H](C)Sc3nncn3C)ccn2)nc(C(F)(F)F)c1 | 0.801
Cc1ncc(C(=O)Nc2cccc([C@H](C)Sc3nncn3C)c2)nc1C1CC1 | 0.801
C[C@H](Sc1nncn1C)c1cccc(NC(=O)c2cc(C(C)(C)O)c(Cl)cn2)c1 | 0.601

Let's switch to this compound now.
Q: Data request, read-out fold change (FC), for C[C@H](Sc1nncn1C)c1cccc(NC(=O)c2cc3c(Cl)cccc3[nH]2)c1
Result: 0.801

----------
# method description: Induction of anti-CD3 antibodies-stimulated human T cell activation at 1 uM assessed fold increase in CD25 expression measured by ELISA assay; further: reference of the scale not given here
# Assay type: functional, T cell line

molecule | fold change (FC)
Cc1n[nH]c(C)c1-c1cc2c(c(C(F)(F)F)c1)CN(c1cccc(C3(Cc4nncn4C)COC3)c1)C2=O | >=1.001
Cn1cnnc1CC1(c2cccc(N3Cc4c(cc(C(O)c5ccccc5)cc4C(F)(F)F)C3=O)c2)COC1 (stereo not drawn) | >=1.001
C[C@H](Sc1nncn1C)c1cccc(NC(=O)c2cc(C3(O)COC3)cc(C(F)(F)F)n2)c1 | <=0.6

----------
# method description: Induction of anti-CD3/CD28 antibodies-stimulated human T cell activation at 1 uM assessed fold increase in IL-2 secretion measured by ELISA assay
# Type: functional, T cell line
property label: fold change (FC)
Give bare numbers.

compound | fold change (FC)
C[C@H](Cc1nncn1C)c1cc(NCCO)nc(N2Cc3c(cccc3C(F)(F)F)C2=O)c1 | 1.01
CN1CCN(c2cc3c(c(C(F)(F)F)c2)CN(c2cccc(C4(Cc5nncn5C)COC4)c2)C3=O)C(=O)C1 | 1.01
CC1CCc2c1n[nH]c2C(=O)Nc1cccc([C@H](C)Cc2nncn2C)c1 (some centres undefined) | 2.51
C[C@H](Cc1nncn1C)c1cccc(NC(=O)c2cnn3cccnc23)c1 | 1.01

Could I get fold change (FC) for every one of these entries?
1. C[C@H](Cc1nncn1C)c1cccc(NC(=O)c2ccnc3ccnn23)c1
2. Cn1cnnc1[C@@H](F)C1(c2cccc(N3Cc4c(cc(CN5C6CCCC5CC6)cc4C(F)(F)F)C3=O)c2)COC1 (stereo in doubt; 671a)
3. CC(Sc1nncn1C)c1cc(F)cc(N2Cc3c(cccc3C(F)(F)F)C2=O)c1 (centres undefined)
4. C[C@H](Cc1nncn1C)c1cccc(NC(=O)c2cc(C(C)(C)O)cc(C(F)(F)F)n2)c1
5. C[C@H](Cc1nncn1C)c1cccc(NC(=O)c2coc(C(F)(F)F)n2)c1
6. Cn1cnnc1C(F)(F)[C@](C)(F)c1cccc(NC(=O)c2nc3c(C(F)(F)F)cccc3[nH]2)c1

Result:
1.01
5
1.01
2.51
1.01
1.01

Could I get fold change (FC) for every one of these entries?
1. C[C@H](Sc1nncn1C)c1cccc(NC(=O)c2cccc(C(F)(F)F)n2)c1
2. Cn1cnnc1C(F)(F)[C@](C)(F)c1cccc(N2Cc3c(cc(C(=O)N4CC[C@H](O)C4)cc3C(F)(F)F)C2=O)c1
3. C[C@H](c1cc2c(c(C(F)(F)F)c1)CN(c1cccc(C3(Cc4nncn4C)COC3)c1)C2=O)N1CC(F)C1
4. CC1CN(c2cc3c(c(C(F)(F)F)c2)CN(c2cccc(C4(Cc5nncn5C)COC4)c2)C3=O)C1C (centres undefined)

Result:
1: 2.51; 2: 2.51; 3: 5; 4: 2.51
